Entry source: patent US20070219237A1

Tested on: porcine gastric H^+/K^+-ATPase (Sus scrofa)
Construct: prepared from mucous membrane in fresh porcine stomachs by homogenization
Sequence (P19156 2-1034 limits assumed): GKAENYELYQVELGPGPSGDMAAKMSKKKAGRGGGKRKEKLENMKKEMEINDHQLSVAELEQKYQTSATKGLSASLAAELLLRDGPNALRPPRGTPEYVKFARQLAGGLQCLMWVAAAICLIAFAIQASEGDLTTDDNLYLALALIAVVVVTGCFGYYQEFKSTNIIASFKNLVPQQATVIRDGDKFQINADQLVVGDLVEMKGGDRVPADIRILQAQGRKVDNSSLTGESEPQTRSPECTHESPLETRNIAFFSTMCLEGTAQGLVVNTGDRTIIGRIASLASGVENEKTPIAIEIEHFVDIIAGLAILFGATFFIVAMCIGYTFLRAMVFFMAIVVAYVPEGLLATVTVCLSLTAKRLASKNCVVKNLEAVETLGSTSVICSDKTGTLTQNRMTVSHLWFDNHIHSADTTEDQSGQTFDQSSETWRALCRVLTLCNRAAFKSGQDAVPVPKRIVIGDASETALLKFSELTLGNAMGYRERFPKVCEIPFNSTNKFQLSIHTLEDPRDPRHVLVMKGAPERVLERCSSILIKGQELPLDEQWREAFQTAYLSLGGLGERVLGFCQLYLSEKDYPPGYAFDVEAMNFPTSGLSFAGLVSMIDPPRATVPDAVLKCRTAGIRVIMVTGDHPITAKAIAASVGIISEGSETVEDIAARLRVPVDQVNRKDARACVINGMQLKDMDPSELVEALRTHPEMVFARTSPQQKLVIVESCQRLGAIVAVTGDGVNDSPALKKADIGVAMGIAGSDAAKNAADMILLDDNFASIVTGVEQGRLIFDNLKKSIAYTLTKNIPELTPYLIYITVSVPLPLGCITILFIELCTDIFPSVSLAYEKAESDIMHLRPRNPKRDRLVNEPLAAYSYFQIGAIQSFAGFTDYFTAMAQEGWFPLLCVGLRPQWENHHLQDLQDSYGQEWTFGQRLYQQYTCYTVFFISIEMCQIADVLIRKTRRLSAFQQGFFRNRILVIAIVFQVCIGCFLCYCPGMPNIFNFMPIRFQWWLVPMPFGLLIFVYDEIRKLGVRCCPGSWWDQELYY
Sequence (P18434 whole entry partner): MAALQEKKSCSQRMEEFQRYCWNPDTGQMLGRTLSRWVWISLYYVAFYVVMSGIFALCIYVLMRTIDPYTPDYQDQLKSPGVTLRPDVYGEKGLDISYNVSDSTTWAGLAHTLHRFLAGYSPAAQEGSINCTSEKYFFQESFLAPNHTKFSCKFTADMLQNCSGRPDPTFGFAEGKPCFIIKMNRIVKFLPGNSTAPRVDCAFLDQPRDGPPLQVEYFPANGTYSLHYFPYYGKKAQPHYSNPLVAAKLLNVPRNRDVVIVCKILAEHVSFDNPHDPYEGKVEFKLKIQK
Procedure details: Ion-tight porcine gastric H+/K+-ATPase inhibition
Recorded conditions: ion-tight gastric vesicles, 150 mM KCl, 15 μM valinomycin, pH 7.4, 37° C., 30 minutes; read-out: IC50 of the inhibitory activity
Readout type: IC50

- Cc1cccc2c1C(Nc1cc(C(=O)N(C)C)cn3c(CO)c(C)nc13)CCO2 (single isomer, unassigned): 89 nM
- Cc1nc2c(NC3CCOc4ccccc43)cc(C(=O)N(C)C)cn2c1CO (single isomer, unassigned; (+)) [Example 2-2]: 61 nM
- Cc1nc2c(NC3CCOc4cc(F)cc(F)c43)cc(C(=O)N(C)C)cn2c1CO (single isomer, unassigned) [Example 3-3]: 41 nM
- Cc1nc2c(NC3CCOc4cccc(F)c43)cc(C(=O)N(C)C)cn2c1CO (single isomer, unassigned; (-)) [Example 4-2]: 29 nM
- Cc1nc2c(NC3CCOc4cccc(F)c43)cc(C(=O)N3CCOCC3)cn2c1CO (single isomer, unassigned; (-)) [Example 9-3]: 61 nM
- Cc1nc2c(NC3CCOc4ccccc43)cc(C(=O)N3CCOCC3)cn2c1CO (racemic) [Example 7-1]: 140 nM
- Cc1cccc2c1C(Nc1cc(C(=O)N3CCOCC3)cn3c(CO)c(C)nc13)CCO2 (single isomer, unassigned; (-)) [Example 6-2]: 43 nM
